target: NK1 (Homo sapiens, UniProt P25103)
Sequence (P25103 whole entry): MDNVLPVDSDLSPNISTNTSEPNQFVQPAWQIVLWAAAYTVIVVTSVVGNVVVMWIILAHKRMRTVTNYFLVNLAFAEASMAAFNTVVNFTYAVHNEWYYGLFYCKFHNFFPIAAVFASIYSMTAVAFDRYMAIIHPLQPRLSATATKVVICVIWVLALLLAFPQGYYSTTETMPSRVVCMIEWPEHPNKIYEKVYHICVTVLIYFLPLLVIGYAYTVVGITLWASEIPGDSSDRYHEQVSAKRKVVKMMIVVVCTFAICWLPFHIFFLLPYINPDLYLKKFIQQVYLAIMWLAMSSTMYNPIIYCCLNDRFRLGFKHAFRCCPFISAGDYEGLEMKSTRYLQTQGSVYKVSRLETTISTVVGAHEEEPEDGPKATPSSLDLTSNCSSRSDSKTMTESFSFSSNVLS
experimental.details: Signal transduction (ST), intracellular Ca++ (FLIPR), NK1
Type: cell-based
experimental.context: antagonist, Ca++ transient peak, read-out: pIC50 NK1 (converted)
property: IC50 (nM)

Some solved cases for reference:
{"molecule": "CS(=O)(=O)N1CC2(CCN([C@H]3CCN(C(=O)c4cc(C(F)(F)F)cc(C(F)(F)F)c4)[C@H](Cc4ccccc4)C3)CC2)c2ccccc21 [Compound 39]", "recorded.result": 135}
{"molecule": "O=C1CC2(CCN([C@@H]3CCN(C(=O)c4cc(C(F)(F)F)cc(C(F)(F)F)c4)[C@H](Cc4ccccc4)C3)CC2)CN1CC1CC1 [Compound 24]", "recorded.result": 126}
{"molecule": "O=C1CC2(CCN([C@@H]3CCN(C(=O)c4cc(C(F)(F)F)cc(C(F)(F)F)c4)[C@H](Cc4ccccc4)C3)CC2)CN1Cc1ccccc1F [Compound 33]", "recorded.result": 191}
{"molecule": "O=C1CC2(CCN([C@@H]3CCN(C(=O)c4cc(C(F)(F)F)cc(C(F)(F)F)c4)[C@H](Cc4ccccc4)C3)CC2)CN1Cc1ccccc1 [Compound 31]", "recorded.result": 72.4}

a: Cc1ccccc1CN1CC2(CCN([C@H]3CCN(C(=O)c4cc(C(F)(F)F)cc(C(F)(F)F)c4)[C@H](Cc4ccccc4)C3)CC2)CC1=O [Compound 28]
b: O=C1CC2(CCN(C3CCN(C(=O)c4cc(C(F)(F)F)cc(C(F)(F)F)c4)C(Cc4ccccc4)C3)CC2)CN1CC1CCCO1 (stereo not drawn) [Compound 25]
c: O=C(C1CCOC1)N1CCC2(CCN([C@@H]3CCN(C(=O)c4cc(C(F)(F)F)cc(C(F)(F)F)c4)[C@H](Cc4ccccc4)C3)CC2)C1 (stereo partly drawn) [Compound 11]
// sort entries: IC50, high to low // ordering of labels required in reply
c, a, b

a: O=C1CC2(CCN([C@H]3CCN(C(=O)c4cc(C(F)(F)F)cc(C(F)(F)F)c4)[C@H](Cc4ccccc4)C3)CC2)CN1Cc1ccsc1 [Compound 29]
b: O=C(c1ccoc1)N1CCC2(CCN(C3CCN(C(=O)c4cc(C(F)(F)F)cc(C(F)(F)F)c4)C(Cc4ccccc4)C3)CC2)C1 (stereo not drawn) [Compound 7]
Hi there! Just curious which has the higher IC50 between a and b . API: response body contains the label of the selected item.
b
(b: 178 nM, a: 102 nM)

a: Cc1ccccc1CN1CC2(CCN([C@@H]3CCN(C(=O)c4cc(C(F)(F)F)cc(C(F)(F)F)c4)[C@H](Cc4ccccc4)C3)CC2)CC1=O [Compound 32]
b: O=C1CC2(CCN([C@H]3CCN(C(=O)c4cc(C(F)(F)F)cc(C(F)(F)F)c4)[C@H](Cc4ccccc4)C3)CC2)CN1Cc1ccccc1Cl [Compound 34]
c: O=C(c1ccoc1)N1CCC2(CCN([C@H]3CCN(C(=O)c4cc(C(F)(F)F)cc(C(F)(F)F)c4)[C@H](Cc4ccccc4)C3)CC2)C1 [Compound 8]
// sort entries: IC50, high to low // ordering of labels required in reply
a, c, b

1: O=C1CC2(CCN([C@H]3CCN(C(=O)c4cc(C(F)(F)F)cc(C(F)(F)F)c4)[C@H](Cc4ccccc4)C3)CC2)CN1 [Compound 21]
2: O=C(c1cc(C(F)(F)F)cc(C(F)(F)F)c1)N1CCC(N2CCC3(CC2)CCN(S(=O)(=O)c2cccs2)C3)CC1Cc1ccccc1 (stereo not drawn) [Compound 9]
3: O=C(C1CC1)N1CCC2(CC1)CCN(C1CCN(C(=O)c3cc(C(F)(F)F)cc(C(F)(F)F)c3)C(Cc3ccccc3)C1)C2 (stereo not drawn) [Compound 6]
4: O=C1CC2(CCN([C@@H]3CCN(C(=O)c4cc(C(F)(F)F)cc(C(F)(F)F)c4)[C@H](Cc4ccccc4)C3)CC2)CN1Cc1ccoc1 [Compound 27]
// sort entries: IC50, high to low // ordering of labels required in reply
1, 2, 4, 3
(1: 347 nM, 2: 234 nM, 4: 117 nM, 3: 53.7 nM)

A: O=C1CC2(CCN([C@@H]3CCN(C(=O)c4cc(C(F)(F)F)cc(C(F)(F)F)c4)[C@H](Cc4ccccc4)C3)CC2)CN1Cc1ccsc1 [Compound 30]
B: O=C1CC2(CCN([C@H]3CCN(C(=O)c4cc(C(F)(F)F)cc(C(F)(F)F)c4)[C@H](Cc4ccccc4)C3)CC2)CN1Cc1ccoc1 [Compound 26]
C: O=C(c1cc(C(F)(F)F)cc(C(F)(F)F)c1)N1CC[C@H](N2CCCC3(CCCN3C(=O)C3CC3)C2)C[C@H]1Cc1ccccc1 (stereo partly drawn) [Compound 46]
Ascending sort, IC50. // ordering of labels required in reply
B, C, A
(B: 53.7 nM, C: 204 nM, A: 302 nM)

1: O=C(c1cc(C(F)(F)F)cc(C(F)(F)F)c1)N1CC[C@H](N2CCCC3(CCCN3C(=O)c3ccoc3)C2)C[C@H]1Cc1ccccc1 (stereo partly drawn) [Compound 48]
2: O=C1CC2(CCN([C@H]3CCN(C(=O)c4cc(C(F)(F)F)cc(C(F)(F)F)c4)[C@H](Cc4ccccc4)C3)CC2)CN1CC1CC1 [Compound 23]
Hi there! Just curious which has the higher IC50 between 1 and 2 . API: response body contains the label of the selected item.
1

P: O=C(c1ccccc1Cl)N1CCC2(CCN([C@H]3CCN(C(=O)c4cc(C(F)(F)F)cc(C(F)(F)F)c4)[C@H](Cc4ccccc4)C3)CC2)C1 [Compound 13]
Q: O=C1CC2(CCN([C@@H]3CCN(C(=O)c4cc(C(F)(F)F)cc(C(F)(F)F)c4)[C@H](Cc4ccccc4)C3)CC2)CN1Cc1ccccc1Cl [Compound 35]
Hi there! Just curious which has the higher IC50 between P and Q . API: response body contains the label of the selected item.
Q
(Q: 182 nM, P: 75.9 nM)
